- System: Staphylococcus aureus
- protocol-text: Antibacterial activity against Staphylococcus aureus MSSA 22 at 37 degC after 24 hrs by filter paper disk method
- Type: functional
Tick yes (1) if diameter of the inhibition zone (DIZ) is 20 mm or greater. Tick no (0) if diameter of the inhibition zone (DIZ) is less than 20 mm.

Threshold query (diameter of the inhibition zone (DIZ) >= 20 mm) on C=CCCCCCCCCc1nc2cc([N+](=O)[O-])ccc2[nH]1
yes (1)

Threshold query (diameter of the inhibition zone (DIZ) >= 20 mm) on CCCCCC[C@@H](O)C/C=C\CCCCCCCc1nc2ccccc2[nH]1
no (0)

Threshold query (diameter of the inhibition zone (DIZ) >= 20 mm) on CCCCC/C=C\CC[C@H](O)CCCCCCCc1nc2cc(Cl)ccc2[nH]1
yes (1)

Threshold query (diameter of the inhibition zone (DIZ) >= 20 mm) on CCCCCCCC/C=C\CCCCCCCc1nc2ccccc2[nH]1
no (0)

Threshold query (diameter of the inhibition zone (DIZ) >= 20 mm) on CCCCC/C=C\CC[C@H](O)CCCCCCCc1ncc[nH]1
no (0)

Threshold query (diameter of the inhibition zone (DIZ) >= 20 mm) on CCCCCCCC/C=C/CCCCCCCc1nc2c([nH]1)CCCC2
no (0)

###

- Tested on: Bacillus subtilis
- protocol-text: Antibacterial activity against Bacillus subtilis ATCC 6051 at 37 degC after 24 hrs by filter paper disk method
- Assay type: functional
- protocol-conditions: Bacillus subtilis, ATCC 6051, 24 h
Exercise: state measured MIC for each of the compounds provided.
Numbers only; they are read as mg/L.

Look up MIC: CCCCC/C=C\CC[C@H](O)CCCCCCCc1nc2cc([N+](=O)[O-])ccc2[nH]1
37.5

Look up MIC: O=C(N[C@H](CO)[C@H](O)c1ccc([N+](=O)[O-])cc1)C(Cl)Cl
6

Look up MIC: CCCCCC[C@@H](O)C/C=C\CCCCCCCc1nc2ccccc2[nH]1
75

Look up MIC: C=CCCCCCCCCc1nc2cc(Cl)ccc2[nH]1
75

Look up MIC: CCCCC/C=C\CC[C@H](O)CCCCCCCc1ncc[nH]1
37.5

Look up MIC: CCCCC/C=C\CC[C@H](O)CCCCCCCc1nc2cc(Cl)ccc2[nH]1
75

Look up MIC: CCCCCCCC/C=C\CCCCCCCc1nc2ccccc2[nH]1
75

Look up MIC: CCCCCC[C@@H](O)C/C=C\CCCCCCCc1ncc[nH]1
37.5

Look up MIC: CCCCCCCC/C=C/CCCCCCCc1nc2cc(Cl)ccc2[nH]1
75

Look up MIC: CCCCCC[C@@H](O)C/C=C\CCCCCCCc1nc2cc([N+](=O)[O-])ccc2[nH]1
37.5

Look up MIC: C=CCCCCCCCCc1nc2ccccc2[nH]1
75

###

- Test system: Penicillium sp.
- protocol-text: Antifungal activity against Penicillium sp. at 28 degC after 72 hrs
- Format: functional
- protocol-conditions: Penicillium sp., 72 h
Exercise: state measured MIC for each of the compounds provided.

Look up MIC: C=CCCCCCCCCc1nc2cc([N+](=O)[O-])ccc2[nH]1
37.5 µg/mL

Look up MIC: CCCCCCCC/C=C/CCCCCCCc1nc2cc([N+](=O)[O-])ccc2[nH]1
37.5 µg/mL

Look up MIC: C=CCCCCCCCCc1nc2cc(Cl)ccc2[nH]1
37.5 µg/mL

Look up MIC: CCCCCC[C@@H](O)C/C=C\CCCCCCCc1nc2cc(Cl)ccc2[nH]1
37.5 µg/mL

Look up MIC: C=CCCCCCCCCc1nc2ccccc2[nH]1
75 µg/mL

Look up MIC: C=CCCCCCCCCc1ncc[nH]1
150 µg/mL

Look up MIC: CCCCC/C=C\CC[C@H](O)CCCCCCCc1ncc[nH]1
150 µg/mL

Look up MIC: CCCCC/C=C\CC[C@H](O)CCCCCCCc1nc2c([nH]1)CCCC2
75 µg/mL

Look up MIC: CCCCCC[C@@H](O)C/C=C\CCCCCCCc1nc2c([nH]1)CCCC2
75 µg/mL

Look up MIC: CCCCC/C=C\CC[C@H](O)CCCCCCCc1nc2cc(Cl)ccc2[nH]1
37.5 µg/mL

Look up MIC: CCCCCC[C@@H](O)C/C=C\CCCCCCCc1nc2cc([N+](=O)[O-])ccc2[nH]1
37.5 µg/mL

Look up MIC: CCCCCCCC/C=C/CCCCCCCc1nc2c([nH]1)CCCC2
75 µg/mL

Look up MIC: CCCCC/C=C\CC[C@H](O)CCCCCCCc1nc2ccccc2[nH]1
75 µg/mL

Look up MIC: C=CCCCCCCCCc1nc2c([nH]1)CCCC2
75 µg/mL

Look up MIC: CCCCCC[C@@H](O)C/C=C\CCCCCCCc1ncc[nH]1
150 µg/mL

Look up MIC: CCCCCCCC/C=C\CCCCCCCc1nc2ccccc2[nH]1
75 µg/mL

Look up MIC: CCCCC/C=C\CC[C@H](O)CCCCCCCc1nc2cc([N+](=O)[O-])ccc2[nH]1
37.5 µg/mL

Look up MIC: CCCCCCCC/C=C/CCCCCCCc1ncc[nH]1
150 µg/mL

Look up MIC: CCCCCC[C@@H](O)C/C=C\CCCCCCCc1nc2ccccc2[nH]1
75 µg/mL

Look up MIC: CCCCCCCC/C=C/CCCCCCCc1nc2cc(Cl)ccc2[nH]1
37.5 µg/mL
